Tested on: SN12C renal
assay-text: NCI-60 one-dose screen, 48 h
experimental-setup: 10 µM unless noted
This is part of a sample that, as a whole, favours compounds with a hit. Of some 83,000 tested, about 20% had one in any assay. The source made the active and inactive calls. How the source made its calls: active means growth percent below 10; inactive means the rest.
Outcome codes: yes = active, no = inactive

| compound | discrete-label |
| --- | --- |
| O=C(Nc1ccc(N2CCNCC2)cn1)c1[nH]ncc1Nc1ncnc2sccc12 | no |
| COc1ccc(-c2c(-c3ccc(OC)c(O)c3)cnc3ncnn23)cc1 | no |
| CCN1C(=O)N(CC)C2C1NN=c1s/c(=C3\C(=O)N(CC(C)(C)C)c4ccccc43)c(=O)n12 (stereo not given) | no |
| O=C(Nc1ccc(N2CCNCC2)cc1)c1[nH]ncc1Nc1cc(Oc2ccccc2)ncn1 | yes |
| O=C1NC(=O)C(=Cc2cn(Cc3cn(Cc4ccc(Cl)cc4Cl)nn3)c3ccccc23)C(=O)N1 | no |
| CCOc1cccc(/C=N/NC(=O)C(=O)Nc2cccc(C(F)(F)F)c2)c1O | no |
| CN(C)c1ccc(/C=C/c2ccnc3c(O)cccc23)cc1 | no |
| N[C@@H](CC/[N+]([O-])=N/O)C(=O)O | no |
| O=C(Nc1ccc(F)c(Cl)c1)Nc1ccc(Cl)c(Cl)c1 | no |
| COc1ccc(C2C3=C(COC3=O)N(CCO)c3cc4c(cc32)OCCO4)cc1 (stereo not given) | no |
| CC(=O)n1cc(-c2c[nH]c3ccccc23)c(-c2ccc(Cl)cc2)n1 | no |
| O=C(c1nc2ccccc2[nH]1)C1C(c2ccc([N+](=O)[O-])cc2)C2CC3CCCCC3N2[C@@]12C(=O)Nc1cc(Cl)ccc12 (stereo not given in full) | no |
| COc1cc(CNC(=O)Cc2ccccc2)ccc1OCc1cn(-c2ccc(F)cc2)nn1 | no |
| O=c1oc2ccc(Cl)cc2c(=O)n1-c1cc(C(F)(F)F)cc(C(F)(F)F)c1 | yes |
| O=C(N/N=C/c1ccccc1O)C(=O)Nc1ccc(F)cc1 | no |
